Values compiled from patent US20250304640A1.

System under test: T1, IL-10 receptor (IL-10R: IL10RA and IL10RB) on HEK-Blue IL-10 reporter cells (UniProt Q13651 22-578; Q08334 20-325, limits assumed)
T1 sequence (looked up) 1: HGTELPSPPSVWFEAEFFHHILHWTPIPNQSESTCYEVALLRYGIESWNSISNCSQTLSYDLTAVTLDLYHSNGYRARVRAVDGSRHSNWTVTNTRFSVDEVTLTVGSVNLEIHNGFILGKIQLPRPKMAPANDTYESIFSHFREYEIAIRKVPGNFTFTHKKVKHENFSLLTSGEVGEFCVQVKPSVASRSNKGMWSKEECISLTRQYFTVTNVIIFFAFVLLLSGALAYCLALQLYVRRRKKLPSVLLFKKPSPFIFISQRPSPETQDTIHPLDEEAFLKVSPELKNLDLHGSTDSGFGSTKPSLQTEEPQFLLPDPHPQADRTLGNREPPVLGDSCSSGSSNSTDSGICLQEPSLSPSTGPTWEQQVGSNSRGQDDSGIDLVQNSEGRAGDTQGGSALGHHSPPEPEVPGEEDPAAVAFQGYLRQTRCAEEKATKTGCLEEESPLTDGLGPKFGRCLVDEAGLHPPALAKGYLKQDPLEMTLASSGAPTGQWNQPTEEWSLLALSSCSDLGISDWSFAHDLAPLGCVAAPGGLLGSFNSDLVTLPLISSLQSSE
T1 sequence (looked up) 2: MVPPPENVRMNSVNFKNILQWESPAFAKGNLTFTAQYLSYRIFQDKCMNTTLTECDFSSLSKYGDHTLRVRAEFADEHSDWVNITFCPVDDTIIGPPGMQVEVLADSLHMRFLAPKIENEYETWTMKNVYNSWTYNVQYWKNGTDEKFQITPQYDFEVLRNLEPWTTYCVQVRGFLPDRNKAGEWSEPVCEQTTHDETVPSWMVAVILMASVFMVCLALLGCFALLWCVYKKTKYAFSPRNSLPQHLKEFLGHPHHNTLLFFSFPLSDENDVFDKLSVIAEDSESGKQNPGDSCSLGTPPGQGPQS
Experiment: cell-based or functional assay
Quantity name: IL-10 EC-50, HEK-Blue IL-10 reporter cells

INSERT INTO assay_data (binder, test_result) VALUES
  ('IL-10-CSF1-HiBit (ligand) SPGQGTQSENSCTHFPGNLPNMLRDLRDAFSRVKTFFQMKDQLDNLLLKESLLEDFKGYLGCQALSEMIQFYLEEVMPQAENQDPDIKAHVNSLGENLKTLRLRLRRCHRFLPCENKSKAVEQVKNAFNKLQEKGIYKAMSEFDIFINYIEAYMTMKIRNGGGGGSGGSGGSGGSGGSGGSGGSGGSGGGEEVSEYCSHMIGSGHLQSLQRLIDSQMETSCQITFEFVDQEQLKDPVCYLKKAFLLVQDIMEDTMRFRDNTPNAIAIVQLQELSLRLKSCFTKDYEEHDKACVRTFYETPLQLLEKVKNVFNETKNLLDKDWNIFSKNCNNSFAECSSQDGGVSGWRLFKKIS', '5.9e-09'),
  ('IL10-HiBit (ligand) SPGQGTQSENSCTHFPGNLPNMLRDLRDAFSRVKTFFQMKDQLDNLLLKESLLEDFKGYLGCQALSEMIQFYLEEVMPQAENQDPDIKAHVNSLGENLKTLRLRLRRCHRFLPCENKSKAVEQVKNAFNKLQEKGIYKAMSEFDIFINYIEAYMTMKIRNGGVSGWRLFKKIS', '8e-10'),
  ('CSF1-IL10-HiBit (ligand) EEVSEYCSHMIGSGHLQSLQRLIDSQMETSCQITFEFVDQEQLKDPVCYLKKAFLLVQDIMEDTMRFRDNTPNAIAIVQLQELSLRLKSCFTKDYEEHDKACVRTFYETPLQLLEKVKNVFNETKNLLDKDWNIFSKNCNNSFAECSSQDGGGGGSGGSGGSGGSGGSGGSGGSGGSGGGSPGQGTQSENSCTHFPGNLPNMLRDLRDAFSRVKTFFQMKDQLDNLLLKESLLEDFKGYLGCQALSEMIQFYLEEVMPQAENQDPDIKAHVNSLGENLKTLRLRLRRCHRFLPCENKSKAVEQVKNAFNKLQEKGIYKAMSEFDIFINYIEAYMTMKIRNGGVSGWRLFKKIS', '1.16e-09');
